Data origin: patent US10111854B2

Each entry below carries its recorded IC50.
- System: L. donovani Ld39 amastigotes (SSG-resistant)
- Protocol: Anti-amastigote activity in infected PEM, L. donovani Ld39
- Type: cell-based
- Setup conditions: Leishmania donovani, 72 h; infected PEM, 3 days, Giemsa; SSG-resistant
Field: numeric (µM). Do not append units.

{"columns": ["Compound", "U", "IC50"],
 "data": [
  ["O=c1cc(-c2ccc(OCCOCCNCc3ccccc3)cc2)oc2ccccc12", "µM", 6.8],
  ["O=c1cc(-c2ccc(OCCOCCN(CCOCCO)Cc3ccncc3)cc2)oc2ccccc12", "µM", 0.33],
  ["O=c1cc(-c2ccc(OCC3CCN(Cc4ccncc4)CC3)cc2)oc2ccccc12", "µM", 3.3],
  ["NCCOCCOc1ccc(-c2cc(=O)c3ccccc3o2)cc1", "µM", 0.7],
  ["CCCCCCCCCCCCCCCCOP(=O)([O-])OCC[N+](C)(C)C [Miltefosine, reference compound]", "µM", 16]
]}

Lab note: next compound to report on.
What does the data say about its IC50? Entry: CN(CCOc1ccc(-c2cc(=O)c3ccccc3o2)cc1)CCN(C)Cc1ccncc1 9.6
